system: MCF-7 Breast Cancer; test: Cytotoxicity (growth inhibition), MCF-7; details: mcf-7 cells
pIC50: −log10 of the molar value.
recorded_endpoint: pIC50

[[record]]
compound = "COC(=O)c1ccc([O-])cc1.COC(=O)c1ccc([O-])cc1.[Ti+4].c1cc[cH-]c1.c1cc[cH-]c1 [TPE]"
system_under_test = "MCF-7 Breast Cancer"
endpoint_result = 5.70


====

system: HL-60 B-cell Leukemia; experiment: Cytotoxicity (growth inhibition), HL-60; details: hl-60 cells
pIC50: −log10 of the molar value.
recorded_endpoint: pIC50

[[record]]
structure = "COC(=O)c1ccc([O-])cc1.COC(=O)c1ccc([O-])cc1.[Ti+4].c1cc[cH-]c1.c1cc[cH-]c1"
recorded_endpoint = "pIC50"
endpoint_result = 5.51


The reported numbers originate from patent US5496854A.
